Target: rhCOX-2 (Homo sapiens)
Construct: microsomal preparation
Sequence (P35354 18-604): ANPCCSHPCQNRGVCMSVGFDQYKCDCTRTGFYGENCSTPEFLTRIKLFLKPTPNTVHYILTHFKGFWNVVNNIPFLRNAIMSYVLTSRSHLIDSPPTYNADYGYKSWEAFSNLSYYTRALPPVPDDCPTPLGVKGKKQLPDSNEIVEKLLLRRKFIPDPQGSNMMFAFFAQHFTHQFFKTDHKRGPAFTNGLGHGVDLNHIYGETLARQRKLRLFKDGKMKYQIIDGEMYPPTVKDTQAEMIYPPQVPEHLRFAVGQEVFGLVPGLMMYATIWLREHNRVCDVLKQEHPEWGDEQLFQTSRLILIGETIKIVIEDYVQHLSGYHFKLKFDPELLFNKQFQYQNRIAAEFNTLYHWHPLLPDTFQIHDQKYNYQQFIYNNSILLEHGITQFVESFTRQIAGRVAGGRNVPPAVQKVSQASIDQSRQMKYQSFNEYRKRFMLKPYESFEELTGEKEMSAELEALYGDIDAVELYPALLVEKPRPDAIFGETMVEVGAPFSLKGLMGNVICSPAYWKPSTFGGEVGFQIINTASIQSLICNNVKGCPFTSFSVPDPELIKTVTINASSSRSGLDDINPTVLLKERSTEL
Test: Inhibition of recombinant human COX-2 (PGH2 converted to PGF2α, EIA)
Conditions: human recombinant COX-2; 30 min preincubation, 37° C.
Description: Representative compounds of this invention were evaluated for inhibition of COX-2 and COX-1 enzymes as follows. […] The reaction was incubated for 35 sec (maximum level of PGH2 accumulation as determined from time course studies), and terminated by addition of […] of SnCl2 (1 mg/ml) in 0.1N HCl. PGH2 is quantitatively converted to PGF2a by this reaction (50% efficiency of total conversion). […]
Property name: IC50 (nM)

Reference set (2 entries):
Compound: CCCC1(CC(=O)O)OCCc2c1[nH]c1cccc(C#N)c21 (centres unmarked) [Example 4]
IC50 [nM]: 1700

Compound: CCCC1(CC(=O)O)CCCc2c1[nH]c1c(F)ccc(C#N)c21 (centres unmarked) [Example 6]
IC50 [nM]: 320

1: C=CCC1(CC(=O)O)CCCc2c1[nH]c1c(F)ccc(C#N)c21 (centres unmarked) [Example 5]
2: CCCC1(CC(=O)O)OCCc2c1[nH]c1c(F)ccc(C#N)c21 (centres unmarked) [Example 1]
3: CCC1(CC(=O)O)OCCc2c1[nH]c1cccc(C#N)c21 (centres unmarked) [Example 3]
// ascending sort on recorded IC50 Give the labels in the order specified.
1, 3, 2
(1: 100 nM, 3: 570 nM, 2: 1000 nM)

----------
Molecular target: purified ovine COX-1 (Ovis aries, UniProt P05979)
Sequence (P05979 25-600): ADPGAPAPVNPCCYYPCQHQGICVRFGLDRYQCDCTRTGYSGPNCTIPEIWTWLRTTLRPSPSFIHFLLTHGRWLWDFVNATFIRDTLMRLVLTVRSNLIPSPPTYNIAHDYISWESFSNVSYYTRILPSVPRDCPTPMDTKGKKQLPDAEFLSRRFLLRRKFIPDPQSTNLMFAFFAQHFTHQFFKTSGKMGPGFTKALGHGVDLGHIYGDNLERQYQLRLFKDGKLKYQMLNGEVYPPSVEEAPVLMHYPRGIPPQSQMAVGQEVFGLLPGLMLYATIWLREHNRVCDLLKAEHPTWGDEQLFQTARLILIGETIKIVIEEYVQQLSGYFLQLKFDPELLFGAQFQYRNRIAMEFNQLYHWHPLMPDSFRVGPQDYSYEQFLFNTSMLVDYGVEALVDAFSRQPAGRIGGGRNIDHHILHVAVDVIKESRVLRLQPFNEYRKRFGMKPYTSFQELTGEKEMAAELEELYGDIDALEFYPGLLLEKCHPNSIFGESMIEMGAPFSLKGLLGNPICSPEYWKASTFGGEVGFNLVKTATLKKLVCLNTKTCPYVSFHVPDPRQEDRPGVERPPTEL
pIC50: −log10 of the molar value.
Property name: pIC50

Assign pIC50 to the following record: CCCC1(CC(=O)O)OCCc2c1[nH]c1cccc(C#N)c21 (stereo not shown)
< 3.00

----------
Target: purified ovine COX-1 (Ovis aries, UniProt P05979)
Construct: purchased Cayman Chemicals (Ann Arbor, Mich.)
Sequence (P05979 25-600): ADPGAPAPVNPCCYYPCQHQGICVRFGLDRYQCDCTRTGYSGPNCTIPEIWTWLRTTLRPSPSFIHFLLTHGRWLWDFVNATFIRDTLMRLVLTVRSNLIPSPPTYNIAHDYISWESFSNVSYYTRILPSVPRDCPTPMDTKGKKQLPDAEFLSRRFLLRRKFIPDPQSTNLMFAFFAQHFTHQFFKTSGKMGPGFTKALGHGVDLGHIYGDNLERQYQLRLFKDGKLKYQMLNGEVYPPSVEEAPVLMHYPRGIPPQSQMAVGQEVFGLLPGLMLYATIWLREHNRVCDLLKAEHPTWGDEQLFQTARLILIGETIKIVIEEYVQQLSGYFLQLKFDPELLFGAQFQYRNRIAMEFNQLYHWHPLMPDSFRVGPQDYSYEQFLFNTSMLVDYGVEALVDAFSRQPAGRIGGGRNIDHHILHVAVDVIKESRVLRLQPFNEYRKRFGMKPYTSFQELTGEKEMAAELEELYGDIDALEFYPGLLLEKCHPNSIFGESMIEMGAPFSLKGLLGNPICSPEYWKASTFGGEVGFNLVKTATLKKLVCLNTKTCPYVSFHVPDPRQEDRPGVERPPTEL
Assay: Inhibition of purified ovine COX-1 (PGH2 converted to PGF2α, EIA)
Type: biochemical
Settings: at 270 μM; read-out: % inh of pur. bovine COX-1
Property name: inhibition at 270 µM (%)

Here's what some known entries look like.
Compound: CCCC1(CC(=O)O)CCCc2c1[nH]c1c(C)ccc(C#N)c21 (stereo not shown) [Example 8]
Measurement target: purified ovine COX-1 (Ovis aries, UniProt P05979)
Measure unit: %
inhibition at 270 µM: 99
//
Compound: C=CCC1(CC(=O)O)CCCc2c1[nH]c1c(C#N)ccc(C#N)c21 (stereo not shown) [Example 11]
Measurement target: purified ovine COX-1 (Ovis aries, UniProt P05979)
Measure unit: %
inhibition at 270 µM: 86

A: CCCC1(CC(=O)O)CCCc2c1[nH]c1c(C#N)ccc(C#N)c21 (stereo not shown) [Example 12]
B: CCC1(CC(=O)O)OCCc2c1[nH]c1cccc(C#N)c21 (stereo not shown) [Example 3]
Rank A against B by their inhibition at 270 µM values and give the higher one. State your choice using its label.
A
